Data provenance: ChEMBL document CHEMBL5226381

Below is a list of entries, each paired with its recorded MIC value.
Tested on: Mycobacterium tuberculosis
Test name: Antitubercular activity against INH/RIF-resistant Mycobacterium tuberculosis clinical isolate M6 assessed as inhibition of bacterial growth incubated for 7 to 10 days by Alamar Blue staining based analysis
Type: functional
Condition: time 7-10 day
Give the quantity in µg/mL, number only.

Before answering, review these 4 worked examples.
Compound: CC1(C)c2c[nH]c3cccc(c23)S[C@H]1C(=O)O
MIC / µg/mL: 12.5
//
Compound: CO[C@H]1/C=C/O[C@@]2(C)Oc3c(C)c(O)c4c(O)c(c(/C=N/N5CCN(C)CC5)c(O)c4c3C2=O)NC(=O)/C(C)=C\C=C\[C@H](C)[C@H](O)[C@@H](C)[C@@H](O)[C@@H](C)[C@H](OC(C)=O)[C@@H]1C [RIFAMPIN]
MIC / µg/mL: 16
//
Compound: C[C@H]1c2c[nH]c3cccc(c23)S[C@H]1C(=O)O [CHUANGXINMYCIN]
MIC / µg/mL: 0.78
//
Compound: O=C(O)[C@H]1Cc2c[nH]c3cccc(c23)S1
MIC / µg/mL: 0.78

Kindly consider the entry below.
Query: Tell me the measured MIC of NNC(=O)c1ccncc1 [ISONIAZID] , please.
Response: 8
